assay: in vitro; conditions: PAMPA, pH 7.4
Description: Effective permeability of the compound at pH 7.4 after 18 hrs by PAMPA-BBB assay
readout-name: Papp at 18 h
Give your result as the value with the unit written after it.

OC(CNc1ccc(Cl)cc1)CNc1ccc(-c2nc3ccccc3o2)cc1 (configuration not stated): 4.55 ×10⁻⁶ cm/s

Form: compound = Cc1nnc2n1-c1ccc(Cl)cc1C(c1ccccc1)=NC2 [ALPRAZOLAM] ; Papp at 18 h = 4.2 ×10⁻⁶ cm/s

* * *

assay: Selectivity index, ratio of IC50 for human serum BChE to IC50 for Electric eel AChE
readout-name: Ratio IC50
Give bare numbers.

// below: answered compounds
OC(CNc1ccccc1)CNc1ccc(-c2nc3ccccc3o2)cc1 (stereo unspecified): 4.2
Oc1ccc(NC(=S)Nc2ccc(-c3nc4ccccc4o3)cc2)cc1: 31
Oc1ccc(NCC(O)CNc2ccc(-c3nc4ccccc4o3)cc2)cc1 (stereo unspecified): 3.4
OC(CNc1ccc(Cl)cc1)CNc1ccc(-c2nc3ccccc3o2)cc1 (stereo unspecified): 6.3
Oc1ccc(CNc2ccc(-c3nc4ccccc4o3)cc2)cc1: 6.5

// moving on: another record for Ratio IC50
Looking up Oc1ccc(/C=N/c2ccc(-c3nc4ccccc4o3)cc2)cc1 , I see its Ratio IC50 listed as 28.7

* * *

biological target: Cholinesterase (Homo sapiens, UniProt P06276); assay: Inhibition of human serum BChE using butyrylthiocholine iodide as substrate after 10 mins measured for every mins by Ellman's method
Sequence (P06276 whole entry): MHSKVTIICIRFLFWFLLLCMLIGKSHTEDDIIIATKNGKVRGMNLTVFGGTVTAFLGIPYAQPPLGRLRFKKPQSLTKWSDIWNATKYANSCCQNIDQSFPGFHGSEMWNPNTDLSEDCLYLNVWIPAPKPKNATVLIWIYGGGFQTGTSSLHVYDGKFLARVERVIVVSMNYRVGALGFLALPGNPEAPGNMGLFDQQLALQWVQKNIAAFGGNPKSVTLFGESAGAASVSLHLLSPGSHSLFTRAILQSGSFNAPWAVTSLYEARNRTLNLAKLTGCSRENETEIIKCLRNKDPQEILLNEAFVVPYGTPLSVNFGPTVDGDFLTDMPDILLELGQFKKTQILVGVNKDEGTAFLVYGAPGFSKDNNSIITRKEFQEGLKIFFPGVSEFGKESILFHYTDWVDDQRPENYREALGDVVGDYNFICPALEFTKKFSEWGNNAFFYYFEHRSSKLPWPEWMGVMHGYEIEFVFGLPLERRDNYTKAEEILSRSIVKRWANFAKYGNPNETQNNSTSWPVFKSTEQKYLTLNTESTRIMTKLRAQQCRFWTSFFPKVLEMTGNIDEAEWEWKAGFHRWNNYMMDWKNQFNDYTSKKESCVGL
readout-name: IC50

Clc1ccc(/C=N/c2ccc(-c3nc4ccccc4o3)cc2)cc1: > 50 µM
S=C(Nc1ccc(Cl)cc1)Nc1ccc(-c2nc3ccccc3o2)cc1: > 50 µM
CC(C)c1ccc(NC(=S)Nc2ccc(-c3nc4ccccc4o3)cc2)cc1: > 50 µM

Consider the following items and state reported IC50 for each.
1. CC(C)c1ccc(CNc2ccc(-c3nc4ccccc4o3)cc2)cc1
2. Brc1ccc(/C=N/c2ccc(-c3nc4ccccc4o3)cc2)cc1

Resp:
1: > 50 µM; 2: > 50 µM

* * *

biological target: Acetylcholinesterase (Electrophorus electricus)
Sequence (O42275 whole entry): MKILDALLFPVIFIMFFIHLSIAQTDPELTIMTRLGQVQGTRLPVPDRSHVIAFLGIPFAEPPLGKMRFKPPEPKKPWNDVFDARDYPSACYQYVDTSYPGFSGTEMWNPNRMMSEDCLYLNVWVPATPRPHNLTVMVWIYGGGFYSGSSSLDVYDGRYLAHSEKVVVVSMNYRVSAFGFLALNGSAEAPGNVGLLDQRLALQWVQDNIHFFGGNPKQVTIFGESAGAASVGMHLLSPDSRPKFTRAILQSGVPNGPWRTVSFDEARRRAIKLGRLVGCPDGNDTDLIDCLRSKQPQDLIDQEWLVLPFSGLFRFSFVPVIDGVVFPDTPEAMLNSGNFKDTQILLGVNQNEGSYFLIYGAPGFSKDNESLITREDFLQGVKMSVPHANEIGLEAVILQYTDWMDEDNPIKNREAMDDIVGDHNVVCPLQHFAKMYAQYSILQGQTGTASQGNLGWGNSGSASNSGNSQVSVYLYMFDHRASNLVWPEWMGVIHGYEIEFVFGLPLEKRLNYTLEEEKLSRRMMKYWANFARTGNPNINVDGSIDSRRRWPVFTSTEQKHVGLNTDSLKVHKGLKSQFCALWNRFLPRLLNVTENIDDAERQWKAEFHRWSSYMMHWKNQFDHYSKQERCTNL
Assignment: determine reported IC50 for the given compounds.
Give bare numbers, in µM.

Below, each entry is followed by its recorded IC50 result.
S=C(Nc1ccc(Cl)cc1)Nc1ccc(-c2nc3ccccc3o2)cc1: 12.6
O=c1cc(-c2ccccc2)c2ccc(NCCCSc3nc4ccccc4o3)cc2o1: 13

Need IC50 for each of these compounds.
1. CC(C)c1ccc(NCC(O)CNc2ccc(-c3nc4ccccc4o3)cc2)cc1 (stereo not given)
2. O=[N+]([O-])c1ccc(NC(=S)Nc2ccc(-c3nc4ccccc4o3)cc2)cc1
3. Brc1ccc(CNc2ccc(-c3nc4ccccc4o3)cc2)cc1
4. c1ccc(CNc2ccc(-c3nc4ccccc4o3)cc2)cc1
5. S=C(Nc1ccc(Br)cc1)Nc1ccc(-c2nc3ccccc3o2)cc1
6. O=[N+]([O-])c1ccc(/C=N/c2ccc(-c3nc4ccccc4o3)cc2)cc1
7. Oc1ccc(/C=N/c2ccc(-c3nc4ccccc4o3)cc2)cc1

Resp:
[8.02, 9.43, 8.44, 7.21, 8.72, 1.79, 0.94]

Hi team, please reply with IC50 for each item in this list.
1. O=c1ccc2ccc(OCCCCCSc3nc4ccccc4o3)cc2o1
2. OC(CNc1ccc(Br)cc1)CNc1ccc(-c2nc3ccccc3o2)cc1 (stereo not given)
3. Oc1ccc(NCC(O)CNc2ccc(-c3nc4ccccc4o3)cc2)cc1 (stereo not given)
4. CN(C)C(=O)Oc1ccccc1-c1nc2ccccc2o1
5. O=[N+]([O-])c1ccc(CNc2ccc(-c3nc4ccccc4o3)cc2)cc1

Resp:
1. 25.4
2. 1.31
3. 0.807
4. 58.2
5. 24.2
